B1: tRNA (parent)
chain: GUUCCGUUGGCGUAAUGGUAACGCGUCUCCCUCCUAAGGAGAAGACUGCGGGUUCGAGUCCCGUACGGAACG

Variants of: B1
EXPERIMENTAL DETAILS: yeast fitness relative to wild type (ratio to wild type); higher = fitter; tRNA-Arg(CCU), competitive growth, 37 C, YPD
Variants at the floor of the assay were thinned out.
PARAMETER: yeast fitness
Just the number, please, no unit attached.

Some variants with recorded yeast fitness:
- C29G C30A: 0.585
- C62U C66U: 1.06
- U47A A65G: 0.937
- U2A C33G A36U G44A U59C: 0.554
- C22A G25A A69C: 0.784

Challenge: Which yeast fitness value is on record for A45U G50A U64C ?
Response given: 0.72

Challenge: Which yeast fitness value is on record for C24U G58A C60G ?
Response given: 0.897

Challenge: Which yeast fitness value is on record for C4A G17U C46A ?
Response given: 0.645

Challenge: Which yeast fitness value is on record for A14U A21C ?
Response given: 0.705

Challenge: Which yeast fitness value is on record for C22G C49U C62G ?
Response given: 0.558

Challenge: Which yeast fitness value is on record for C55A G68C ?
Response given: 0.674

Challenge: Which yeast fitness value is on record for C34G C61U A70U ?
Response given: 0.639

Origin of values: the RNAGym collection of RNA variant scans (doi:10.1126/science.aae0568)
